- Test system: HCC-2998 colon
- assay.remarks: NCI tumour cell line growth inhibition, 48 h
recorded.endpoint: TGI

1. C[N+](C)(C)CC1CCC/C1=N/O (stereo not drawn)
> 100 µM
2. CC(=O)OCC1OC(OCCCCCCO)C(OC(C)=O)C(OC(C)=O)C1OC(C)=O (stereo not drawn)
> 100 µM
3. CCN(CC)c1ccc(N=Nc2ccc([N+](=O)[O-])cc2OC(=O)/C=C/c2ccccc2)c(OC(=O)/C=C/c2ccccc2)c1
> 100 µM
4. O=[N+]([O-])c1ccccc1S(=O)(=O)c1ccccc1
> 100 µM
5. Nc1nc(N)c(C=Nc2ccc(Br)cc2)c(Nc2ccc(Br)cc2)n1
14 µM
6. CC1(C)O[C@@H](CCl)C[C@H](C#N)O1
> 100 µM
7. O=C(CC1(O)C(=O)Nc2ccc(Br)cc21)c1ccc(Cl)cc1Cl (stereo not drawn)
> 100 µM
8. Fc1ccc(N=C/C=C/Nc2ccc(F)cc2)cc1
19.5 µM
9. CCOC(=O)C[n+]1cccc(C2(c3cc4ccccc4[nH]3)OCCO2)c1
> 100 µM
10. COc1ccc2c(C3(c4cn(C)c5cc(OC)ccc45)C(=O)Nc4ccc(Cl)cc43)cn(C)c2c1
> 100 µM
11. Cc1ccc(C(=O)N(Cc2ccccc2)Cc2ccccc2)cc1N=NN(C)C
96 µM
12. Oc1ccc(Cl)cc1-c1cc(-c2ccccc2)nc(NCN2CCCCC2)n1
> 100 µM
13. C=C1C(=O)O[C@H]2[C@H]1CC/C(COC(=O)CCSCCC(=O)OC/C1=C/CC[C@@]3(C)O[C@H]3[C@H]3OC(=O)C(=C)[C@@H]3CC1)=C\CC[C@@]1(C)O[C@@H]21
3.52 µM
14. CN(C)c1nnnn1-c1c(N)n(C)c(=O)n(C)c1=O
> 100 µM
15. O=C1NC(=O)C(=Nc2cccc3c(=O)[nH][nH]c(=O)c23)C(c2nc3ccccc3s2)C1=O (stereo not drawn)
> 100 µM
16. COc1cc([C@@H]2c3cc4c(cc3[C@@H](Nc3ccccc3C(=O)c3ccccc3)[C@H]3COC(=O)[C@H]23)OCO4)cc(OC)c1OC
> 28.7 µM
17. C=CCN1C(=O)/C(=C/c2ccco2)N=C1SC1OC(COC(C)=O)C(OC(C)=O)C(OC(C)=O)C1OC(C)=O (stereo not drawn)
> 100 µM
18. C[n+]1c(-c2ccc(/C=N/Nc3ccnc(N/N=C/c4ccc(-c5cn6ccsc6[n+]5C)cc4)n3)cc2)cn2ccsc21
> 100 µM
19. CC12CC3OC(=O)C1COC14OC5(C2C1=O)C(O)(CCC1C4CC2OC24CC=CC(=O)C14C)C(=O)OC35C (stereo not drawn)
32.8 µM
20. COC(=O)/C(=N/Nc1cccc(Cl)c1)C(C(=O)C(=O)Nc1cccc(Cl)c1C)c1nc2ccccc2nc1C (stereo not drawn)
> 100 µM
21. COc1cc(O)c2c(=O)c3c(C)cccc3n(C)c2c1
> 10 µM
22. CC1=NN(C(=O)CC(=O)Nc2ccccc2Cl)C(=O)C1N=Nc1ccc(S(=O)(=O)c2ccc(N=NC3C(=O)N(C(=O)CC(=O)Nc4ccccc4Cl)N=C3C)cc2)cc1 (stereo not drawn)
> 100 µM
23. NC(=O)c1c([N+](=O)[O-])cc(C(F)(F)F)cc1[N+](=O)[O-]
> 100 µM
24. COc1cccc(/C=N/NC(=S)NC2CC3CCC2C3)c1O (stereo not drawn)
> 100 µM
25. COc1cccc2c1-c1c(c3ccc([N+](=O)[O-])cc3c(=O)n1CCCN)C2=O
7 µM
26. CN(Cc1cccc(F)c1)c1ccc(CO)c(Cl)c1
42.5 µM
27. COP(=O)(OC)C(NC(=O)C(F)(F)F)(c1ccccc1)C(F)(F)F (stereo not drawn)
> 100 µM
28. COc1ccc(S(=O)(=O)NC2=NCCN2C(=S)SN2CCn3c2nsc3=S)cc1
37.9 µM
29. C=C1C(=O)O[C@H]2[C@H]3O[C@@H](C[C@@H]12)[C@@]1(C)CC[C@H](O1)[C@H](C)CCC[C@H]3C
2.57 µM
30. CC(C)N1CCN(Cc2ccc3c(NNC(=O)c4ccccc4)nc4cc(F)ccc4n23)CC1
6.45 µM
31. COC(=O)CCC1CCc2c(OC)ccc(OC)c2C1=O (stereo not drawn)
> 100 µM
32. O=C(CCC(=O)Nc1ccc(Cl)c(Cl)c1)CC(=O)c1ccc(F)cc1
> 100 µM
33. Cc1cn(CCCCCCC2=NCCCN2)c(=O)[nH]c1=O
> 100 µM
34. CSc1c(C#N)c(N)nc2c(N=Nc3ccc(Br)cc3)c(N)nn12
26 µM
35. COc1ccc(/C=c2\sc3n(c2=O)C2C(NN=3)N(C)C(=O)N2C)cc1 (stereo not drawn)
> 100 µM
36. CCCCCCNC(=O)Oc1ccc(/C(=C(/C)Cc2ccc(OC)cc2)c2ccc(OCCCN(C)C)cc2)cc1
29.2 µM
37. Cc1ccc(-c2c3c(nn2-c2ccc(S(N)(=O)=O)cc2)-c2ccccc2C3)cc1
25.8 µM
38. COC(=O)C1=C(c2ccc(OC)c(OC)c2)OC(c2cc(OC)c(OC)c(OC)c2)C1 (stereo not drawn)
> 100 µM
